Value source: PubChem BioAssay (NCI)

Test system: SF-268 CNS
Experiment: NCI tumour cell line growth inhibition, 48 h
Readings of TGI for the listed compounds

Recorded TGI, per entry:
[
  {
    "COMPOUND": "CNC(=S)/C(C#N)=C(\\N)N1CCCC1",
    "TGI": "> 100 µM"
  },
  {
    "COMPOUND": "CCN(CC)c1ccc2nc3ccc(N=Nc4ccc(O)cc4)cc3[n+](-c3ccccc3)c2c1",
    "TGI": "> 100 µM"
  },
  {
    "COMPOUND": "O=C(c1ccco1)N(C(=S)N1CCN(c2ccccn2)CC1)c1ccccc1",
    "TGI": "> 100 µM"
  },
  {
    "COMPOUND": "COc1ccc(-c2nc(N)c(C#N)c3c2CCOc2c-3ccc3ccccc23)cc1",
    "TGI": "39.8 µM"
  },
  {
    "COMPOUND": "O=C(NC1(C(=O)O)CCCC1)c1ccccc1",
    "TGI": "> 100 µM"
  },
  {
    "COMPOUND": "C[C@H]1O[C@@H](C(C)(C)C)OC(=O)[C@@H]1C(OC(=O)c1ccccc1)c1cccc2ccccc12 (some centres not stated)",
    "TGI": "> 100 µM"
  }
]

The reported value for CN(C)c1ccc(/C=C(\NC(=O)c2ccccc2)C(=O)NC(Cc2c[nH]c3ccccc23)C(=O)O)cc1 (configuration not stated) in terms of TGI is > 100 µM

The reported value for `CC(C)C(=S)N(C)O` in terms of TGI is > 100 µM

The reported value for `CC(=O)NC1=C(N)C(=O)c2ccccc2C1=O` in terms of TGI is > 100 µM

The reported value for CN1NC(c2ccccc2)=C(C#N)C(=O)CC1c1ccc(Br)cc1 (configuration not stated) in terms of TGI is > 100 µM

The reported value for `COC(=O)CC(=O)NCC1=CCC(=O)CC1` in terms of TGI is > 100 µM

The reported value for OC(COc1ccccc1)CN1CCCCC1 (configuration not stated) in terms of TGI is > 100 µM

The reported value for `Cc1noc(C)c1-c1cnc2c(-c3ccc(C(=O)O)cc3)cn([C@@H](C)c3ccccn3)c2c1` in terms of TGI is > 100 µM

The reported value for Cc1ccc(S(=O)(=O)NC(=O)NC(CCC(N)=O)C(=O)O)cc1 (configuration not stated) in terms of TGI is > 100 µM

---

Readings of TGI for the listed compounds
System: MDA-MB-435
Experiment: NCI tumour cell line growth inhibition, 48 h

Recorded TGI, per entry:
[
  {
    "COMPOUND": "N#Cc1c(-c2ccccc2)cc(Nc2ccc(Cl)cc2)n2c1nc1ccccc12",
    "VALUE": "> 100 µM"
  },
  {
    "COMPOUND": "CNC(=S)/C(C#N)=C(\\N)N1CCCC1",
    "VALUE": "> 100 µM"
  },
  {
    "COMPOUND": "COc1ccc2c(c1)O/C(=C\\c1cccc(OCC(=O)Nc3nc(C)c(C)s3)c1)C2=O",
    "VALUE": "> 100 µM"
  },
  {
    "COMPOUND": "COc1cc(Nc2ncnc(Nc3ccc4c(n3)NC(=O)C(C)(C)O4)n2)cc(OC)c1OC",
    "VALUE": "> 100 µM"
  }
]

The reported value for `Cn1cc(C2=C(c3ccccc3C(F)(F)F)C(=O)NC2=O)c2ccccc21` in terms of TGI is > 25 µM

The reported value for `C1=NCCOCCN=Cc2ccc(cc2)OCc2cccc(n2)COc2ccc1cc2` in terms of TGI is > 100 µM

The reported value for CC12CCC(CC1(Cl)Cl)C2 (stereo unspecified) in terms of TGI is > 100 µM

---

Tested on: TK-10 renal
Experiment: NCI tumour cell line growth inhibition, 48 h
ASSAY READOUT: TGI (µM)
Write it as a number; the unit µM goes unstated.

[
  {
    "INPUT SMILES": "Nc1ccccc1C(=O)NC(=O)Nc1ccc(Oc2ncc(Br)cn2)c(Cl)c1",
    "TGI [µM]": 13.8
  }
]

Now turn to the next compound.
The reported value for `O=C(Nc1ccc2cc3ccccc3cc2c1)c1cc2c(cc1Cl)Sc1nccn1S2(=O)=O` in terms of TGI is 70.7

---

Readings of TGI for the listed compounds
System: DU-145 prostate
Experiment: NCI tumour cell line growth inhibition, 48 h
Write it as a number; the unit nM goes unstated.

[
  {
    "INPUT SMILES": "COc1ccc2nc3cccc([N+](=O)[O-])c3c(NCCNCCN(C)C)c2c1",
    "VALUE": 909
  }
]

Now turn to the next compound.
The reported value for `O=C1C(Cl)=C(NCCF)C(=O)c2ncccc21` in terms of TGI is 2990

---

Readings of TGI for the listed compounds
Tested on: MOLT-4 leukemia
Test: NCI tumour cell line growth inhibition, 48 h

Recorded TGI, per entry:
[
  {
    "COMPOUND": "CC12CCC(CC1(Cl)Cl)C2 (stereo not drawn)",
    "TGI": "> 100 µM"
  },
  {
    "COMPOUND": "C=Cc1c(C)c2cc3[nH]c(cc4nc(cc5nc(cc1[nH]2)C(C)=C5CCC(=O)N(CC)CC)C(CCC(=O)N(CC)CC)=C4C)c(C)c3C=C",
    "TGI": "> 100 µM"
  },
  {
    "COMPOUND": "Clc1ccc(OCc2nnc3n2N=C(c2ccccc2)CS3)c(Cl)c1",
    "TGI": "> 100 µM"
  },
  {
    "COMPOUND": "CC(=O)O[C@H]1C(=O)[C@@]2(C)[C@H]([C@H](OC(=O)c3ccccc3)[C@]3(O)C[C@H](OC(=O)[C@H](O)[C@@H](NC(=O)c4ccc(N(C)C)cc4)c4ccccc4)C(C)=C1C3(C)C)[C@]1(OC(C)=O)CO[C@@H]1C[C@@H]2O",
    "TGI": "> 21.9 µM"
  }
]

The reported value for c1ccc(C2CC(c3ccc4ccccc4c3)=Nc3ccccc3S2)cc1 (stereo not drawn) in terms of TGI is > 100 µM

The reported value for CC(C)=C1CCC(CN2CCOCC2)C1=O (stereo not drawn) in terms of TGI is 5.54 µM

The reported value for `O=C1C=C(Nc2ccc(S(=O)(=O)Nc3ncccn3)cc2)c2ccccc2C1=O` in terms of TGI is > 100 µM

The reported value for CCCCCCCCCC(=O)NC(Cc1ccc(O)cc1)C(=O)NCCCNCCCCNCCCNC(=O)[C@@H](N)CCCN=C(N)N (stereo partly drawn) in terms of TGI is > 100 µM

---

System: UACC-257 melanoma
Test: NCI tumour cell line growth inhibition, 48 h
ASSAY READOUT: log10(TGI) (log10 of the value in µM)
// do not treat as linear: log10 of TGI, unit µM

Recorded log10(TGI), per entry:
[
  {
    "COMPOUND": "O=C(CN(/C=C/C(=O)C(F)(F)F)c1ccccc1)c1ccc(Cl)cc1",
    "log10(TGI)": 1.66
  },
  {
    "COMPOUND": "C=CCn1c(-c2ccc(Cl)cc2)csc1=Nc1ccccc1OC",
    "log10(TGI)": 1.47
  },
  {
    "COMPOUND": "CNCCCNc1c2ccccc2nc2cccc([N+](=O)[O-])c12",
    "log10(TGI)": -1.31
  },
  {
    "COMPOUND": "CCOC(=O)C#Cc1c(C(=O)OCC)nnn1[C@@H]1O[C@H](CO)[C@H]2OC3(CCCCC3)O[C@H]21",
    "log10(TGI)": 0.88
  }
]

The reported value for CC12OC(C(=O)C13CCC3)C1C(=O)c3ccc4c(ccc5ccccc54)c3C(=O)C12 (stereo not given) in terms of log10(TGI) is 1.59

The reported value for CC(=O)NC1C(OCc2ccccc2)OC(CO)C(O)C1OCC(=O)N[C@@H](C)C(=O)N[C@H](CCC(=O)NCCNc1ccc([N+](=O)[O-])c2[nH]c3ccccc3c(=O)c12)C(N)=O (stereo not given in full) in terms of log10(TGI) is 1.73

The reported value for `CC/C(Cc1ccccc1)=C(/c1ccc(O)cc1)c1ccc(OCCN2CCCC2)cc1` in terms of log10(TGI) is 0.59

The reported value for `CCC(=O)Nc1ccc(NCC(=O)Nc2ccc(OC)cc2)cc1` in terms of log10(TGI) is 1.81

The reported value for O=C(Oc1ccccc1)C(Br)C(Br)c1ccccc1 (stereo not given) in terms of log10(TGI) is 0.68

---

Readings of TGI for the listed compounds
Test system: BT-549 breast
Assay: NCI tumour cell line growth inhibition, 48 h
Write it as a number; the unit µM goes unstated.

Recorded TGI, per entry:
[
  {
    "COMPOUND": "CC[C@@H](O)C[C@H]1CCC[C@@]2(C[C@@H]3OC(=O)/C=C/[C@@](C)(O)[C@@H](O)[C@H](C)[C@@H](O)[C@H](OC4CCC(N(C)C)C(C)O4)[C@@H](O)[C@](C)(O)CCCCC/C=C/[C@@H]4CC(C)(C)O[C@@]4(O)C[C@H](O2)[C@H]3C)O1 (stereo partly drawn)",
    "TGI / µM": 29.2
  },
  {
    "COMPOUND": "COc1ccc2nc3cccc([N+](=O)[O-])c3c(NCCNCCN(C)C)c2c1",
    "TGI / µM": 1.06
  },
  {
    "COMPOUND": "Cc1nc(Nc2ccc(Cl)c(Cl)c2)sc1C(=O)/C=C/c1ccc2c(c1)OCO2",
    "TGI / µM": 46.1
  }
]

The reported value for O=C(C1OC1c1cccc([N+](=O)[O-])c1)C12CC3CC(CC(C3)C1)C2 (stereo not drawn) in terms of TGI is 12.6
